These entries and their values trace back to ChEMBL document CHEMBL2203041.

Experimental protocol: in vitro
Assay context: human, HepG2 cells
Description: Cytotoxicity against human HepG2 cells assessed as cell viability at 10 uM after 24 hrs by MTT assay relative to control
Reported viability at 24 h, 10 µM values are given for each entry in this list.

[[record]]
compound = "COc1ccc(C2c3ccc4ccccc4c3Oc3nc4c(c(N)c32)CCCC4)c(OC)c1 (racemic)"
metric_name = "viability at 24 h, 10 µM"
endpoint_result = "85.3%"

[[record]]
compound = "Nc1c2c(nc3c1C(c1ccc(Cl)c(Cl)c1)c1ccc4ccccc4c1O3)CCCC2 (racemic)"
metric_name = "viability at 24 h, 10 µM"
endpoint_result = "79.9%"

[[record]]
compound = "Nc1c2c(nc3c1C(c1ccc([N+](=O)[O-])cc1)c1ccc4ccccc4c1O3)CCCC2 (racemic)"
metric_name = "viability at 24 h, 10 µM"
endpoint_result = "92.6%"


Would you kindly look at the next entry?
Would you mind telling me what viability at 24 h, 10 µM value was observed for COc1cc(C2c3ccc4ccccc4c3Oc3nc4c(c(N)c32)CCCC4)cc(OC)c1OC (racemic) ?
96.4%
